Hello, the source for this data is PubChem BioAssay AID1159580, in case you need it.

Record form. Attribute: normalized growth. Fill in for each entry.
test: chemical genetic growth profiling, strain panel (AID 1159580);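 note: tested at 20 µM; growth read once vehicle control cultures reached saturation at 30 °C; 1 = growth at the plate median or of vehicle wells; lower values mean less growth of the strain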; conditions: S. cerevisiae deletion strains, growth OD, locus YDR159W, strain sac3, stronger effect = lower value
Screen size: about 5,500 compounds; about 2,000 (36%) were called active. Roughly 18% stayed inconclusive and do not appear here. The list shows a part of the results.
One number for each entry.

# annotated cases, reported normalized growth shown
C=CC[C@@H]1/C=C(\C)C[C@H](C)C[C@H](OC)[C@H]2O[C@@](O)(C(=O)C(=O)N3CCCC[C@H]3C(=O)O[C@H](/C(C)=C/[C@@H]3CC[C@@H](O)[C@H](OC)C3)[C@H](C)[C@@H](O)CC1=O)[C@H](C)C[C@@H]2OC 0.974
NS(=O)(=O)c1cc2c(cc1Cl)NCNS2(=O)=O 1

Now consider a different molecule.
# input molecule: `COc1ccc(-c2c(O)c3c(OC)c4c(cc3oc2=O)OC(C)(C)C=C4)cc1` ; wanted: its normalized growth
1.01
